Data provenance: paper PMC4273984

- Test system: 3FY-Brd4(1) (Homo sapiens, UniProt O60885)
Measurement name: Kd (µM)
Numbers only, in µM.

Input: Given the compound CC(=O)Nc1ccc(O)cc1 , write its reported Kd.
Output: 290

----------
- Test system: 5FW-Brd4(1) (Homo sapiens, UniProt O60885)
Measurement name: Kd (µM)
Numbers only, in µM.

Input: Recall the reported Kd of CC(=O)Nc1ccc(O)cc1 on 5FW-Brd4(1) (Homo sapiens, UniProt O60885) and write it down.
Output: 230
